assay: pKa of substituents on the phenyl ring, measured for unblocked phenylmercaptotetrazole compounds; format: physicochemical; details: substituent on phenyl ring of unblocked phenylmercaptotetrazole
observation-type: pKa

INSERT INTO assay_data (molecule, endpoint_value) VALUES
  ('Oc1ccccc1-n1nnnc1S', 9.5),
  ('Cc1ccc(S(=O)(=O)Nc2ccc(-n3nnnc3S)cc2)cc1', 8.8),
  ('O=S(=O)(Nc1ccccc1)c1ccc(-n2nnnc2S)cc1', 9.55),
  ('NS(=O)(=O)c1ccc(-n2nnnc2S)cc1', 9.95),
  ('CNS(=O)(=O)c1ccc(-n2nnnc2S)cc1', 11.6),
  ('CS(=O)(=O)Nc1ccc(-n2nnnc2S)cc1', 8.65),
  ('CC(=NO)c1ccc(-n2nnnc2S)cc1 [drawing 14]', 11.4),
  ('Oc1ccc(-n2nnnc2S)cc1 [(p) OH, 1-(4-hydroxyphenyl)-5-mercaptotetrazole]', 10.1);
